Consider the following molecules and their measured speed of sound readings.
Test parameters: 313.15 K; 100 kPa; Liquid
Write the answer as a number in m/s, unit excluded.

Study these solved cases before continuing.
INSERT INTO results (test_smiles, property_measured, test_result) VALUES
  ('CCN1CCCC1=O', 'speed of sound', 1437.6),
  ('NCCO', 'speed of sound', 1670.1),
  ('OCCNCCO', 'speed of sound', 1685.9);

Q: Supply speed of sound value. Item: OCCN(CCO)CCO
Result: 1587.8

* * *

In this section we review reported mass density values for a set of compounds.
Test parameters: 303.15 K; 100 kPa; Liquid
Numbers after ± are expanded uncertainties.
Reply with the number and its unit after it.

Solved entries:
INSERT INTO assay_data (test_smiles, test_result) VALUES
  ('OCCN(CCO)CCO', '1118 ± 2.1 kg/m3'),
  ('OCCNCCO', '1090.02 ± 1.8 kg/m3'),
  ('NCCO', '1008.02 ± 1 kg/m3');

Q: # return recorded mass density for input CCN1CCCC1=O
Result: 989.34 ± 1.6 kg/m3

* * *

Test parameters: 303.15 K; 100 kPa; Liquid
Property measured: speed of sound (m/s)
Kindly provide the numeric value in m/s only, without the unit symbol.

Check out these entries, answers already filled in.
INSERT INTO assay_data (test_smiles, property_measured, test_result) VALUES
  ('CCN1CCCC1=O', 'speed of sound', 1475),
  ('OCCN(CCO)CCO', 'speed of sound', 1605.3),
  ('NCCO', 'speed of sound', 1702.1);

Q: Return speed of sound (reported value) for this compound: OCCNCCO
Result: 1711.3

* * *

Test parameters: 303.15 K, Ring tensiometer
Numbers after ± are expanded uncertainties.
This section presents compounds with their documented surface tension liquid-gas values.
I'd appreciate it if you wrote the number followed by its unit.

Q: Item NCCO : provide surface tension liquid-gas
Result: 47.8 ± 0.9 mN/m

Q: Given the compound OCCNCCO , write its reported surface tension liquid-gas.
Result: 46.6 ± 0.9 mN/m

Q: Tell me its surface tension liquid-gas given CCN1CCCC1=O as the entry.
Result: 35.2 ± 0.8 mN/m

Q: Tell me measured surface tension liquid-gas for OCCN(CCO)CCO please.
Result: 45.6 ± 0.8 mN/m

* * *

Test parameters: 323.15 K; 100 kPa; Liquid
Property measured: speed of sound (m/s)
Give the value, in units of m/s, as a plain number.

INSERT INTO assay_data (compound, endpoint_unit, test_result) VALUES
  ('NCCO [2-aminoethan-1-ol]', 'm/s', 1637.2),
  ('OCCN(CCO)CCO [triethanolamine]', 'm/s', 1571.9),
  ('CCN1CCCC1=O [1-ethyl-2-pyrrolidinone]', 'm/s', 1400.6);

Please look at the following compound next.
Q: State its speed of sound: OCCNCCO [diethanolamine]
Result: 1661.1

* * *

Test parameters: 313.15 K, Ring tensiometer
Listed next: entries and their corresponding surface tension liquid-gas.
Numbers only; they are read as mN/m.

INSERT INTO measurements (test_smiles, endpoint_unit, test_result) VALUES
  ('CCN1CCCC1=O', 'mN/m', 34.2),
  ('OCCNCCO', 'mN/m', 46),
  ('OCCN(CCO)CCO', 'mN/m', 44.8);

Q: Could you please provide reported surface tension liquid-gas for NCCO ? Thanks!
Result: 47.1
